For each record, write down the corresponding Kd.
Target: human recombinant CAVA (Homo sapiens, UniProt P35218)
Construct: Most isozymes were truncated, and only the catalytic domains of the proteins were produced; made in house; host or cells: bacterial expression system
Sequence (P35218 39-296 limits assumed): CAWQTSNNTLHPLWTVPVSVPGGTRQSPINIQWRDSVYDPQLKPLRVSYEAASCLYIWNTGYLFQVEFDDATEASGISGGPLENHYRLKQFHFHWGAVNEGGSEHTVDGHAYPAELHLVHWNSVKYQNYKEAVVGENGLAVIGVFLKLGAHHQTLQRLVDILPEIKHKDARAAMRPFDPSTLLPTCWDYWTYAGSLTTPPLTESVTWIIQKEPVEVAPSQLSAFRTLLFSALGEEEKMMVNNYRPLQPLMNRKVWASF
Assay: Fluorescence-based thermal shift assay (FTSA), CAVA
Format: binding
Conditions: 37 °C, pH 7.0
Answers without a unit are incomplete; give the number and then its unit.

Name the recorded Kd for CC1(C)C(/C=C/C2=C(NCCCOCCOCCOCCCNC(=O)CCC(=O)NCCS(=O)(=O)c3c(F)c(F)c(S(N)(=O)=O)c(F)c3NC3CCCCCCC3)C(=C/C=C3\N(CCCCS(=O)(=O)[O-])c4ccccc4C3(C)C)/CCC2)=[N+](CCCCS(=O)(=O)[O-])c2ccccc21.[Na+] . 10000 nM

Next: CC1(C)C(/C=C/C2=C(Oc3ccc(CCC(=O)NCCOCCOCCOCCOCCOCCOCCOCCOCCOCCOCCOCCNC(=O)CCS(=O)(=O)c4c(F)c(F)c(S(N)(=O)=O)c(F)c4NC4CCCCCCC4)cc3)C(=C/C=C3\N(CCCCS(=O)(=O)[O-])c4ccccc4C3(C)C)/CCC2)=[N+](CCCCS(=O)(=O)[O-])c2ccccc21.[Na+] 2000 nM

Next: CC1(C)C(/C=C/C2=C(Oc3cccc(CC(=O)NCCCOCCOCCOCCCNC(=O)CCS(=O)(=O)c4c(F)c(F)c(S(N)(=O)=O)c(F)c4NC4CCCCCCC4)c3)C(=C/C=C3\N(CCCCS(=O)(=O)[O-])c4ccccc4C3(C)C)/CCC2)=[N+](CCCCS(=O)(=O)[O-])c2ccccc21.[Na+] 2000 nM

Next: CC1(C)C(/C=C/C2=C(Oc3ccc(CCC(=O)NCCCOCCOCCOCCCNC(=O)CCS(=O)(=O)c4c(F)c(F)c(S(N)(=O)=O)c(F)c4NC4CCCCCCC4)cc3)C(=C/C=C3\N(CCCCS(=O)(=O)[O-])c4ccccc4C3(C)C)/CCC2)=[N+](CCCCS(=O)(=O)[O-])c2ccccc21.[Na+] 1000 nM

###

Target: human recombinant CAXIV (Homo sapiens, UniProt Q9ULX7)
Construct: Most isozymes were truncated, and only the catalytic domains of the proteins were produced; made in house; host or cells: bacterial expression system
Sequence (Q9ULX7 20-278 limits assumed): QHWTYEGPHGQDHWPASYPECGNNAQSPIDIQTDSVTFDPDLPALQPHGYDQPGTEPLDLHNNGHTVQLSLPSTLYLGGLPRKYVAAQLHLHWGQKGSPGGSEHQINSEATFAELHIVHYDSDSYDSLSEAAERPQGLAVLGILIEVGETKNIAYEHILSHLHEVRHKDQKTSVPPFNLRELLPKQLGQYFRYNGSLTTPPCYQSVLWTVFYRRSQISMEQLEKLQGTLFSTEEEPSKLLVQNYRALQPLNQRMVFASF
Test: Fluorescence-based thermal shift assay (FTSA), CAXIV
Assay type: binding
Conditions: 37 °C, pH 7.0
For each record, write down the corresponding Kd.
Give the number; nM is assumed, so skip it.

Name the recorded Kd for CC1(C)C(/C=C/C2=C(NCCCOCCOCCOCCCNC(=O)CCC(=O)NCCS(=O)(=O)c3c(F)c(F)c(S(N)(=O)=O)c(F)c3NC3CCCCCCC3)C(=C/C=C3\N(CCCCS(=O)(=O)[O-])c4ccccc4C3(C)C)/CCC2)=[N+](CCCCS(=O)(=O)[O-])c2ccccc21.[Na+] [AZ21-6] . 100

Next: CC1(C)C(/C=C/C2=C(Oc3cccc(CC(=O)NCCCOCCOCCOCCCNC(=O)CCS(=O)(=O)c4c(F)c(F)c(S(N)(=O)=O)c(F)c4NC4CCCCCCC4)c3)C(=C/C=C3\N(CCCCS(=O)(=O)[O-])c4ccccc4C3(C)C)/CCC2)=[N+](CCCCS(=O)(=O)[O-])c2ccccc21.[Na+] [GZ21-19] 100

Next: CC1(C)C(/C=C/C2=C(Oc3ccc(CCC(=O)NCCCOCCOCCOCCCNC(=O)CCS(=O)(=O)c4c(F)c(F)c(S(N)(=O)=O)c(F)c4NC4CCCCCCC4)cc3)C(=C/C=C3\N(CCCCS(=O)(=O)[O-])c4ccccc4C3(C)C)/CCC2)=[N+](CCCCS(=O)(=O)[O-])c2ccccc21.[Na+] [GZ22-1] 100

Next: CC1(C)C(/C=C/C2=C(Oc3ccc(CCC(=O)NCCOCCOCCOCCOCCOCCOCCOCCOCCOCCOCCOCCNC(=O)CCS(=O)(=O)c4c(F)c(F)c(S(N)(=O)=O)c(F)c4NC4CCCCCCC4)cc3)C(=C/C=C3\N(CCCCS(=O)(=O)[O-])c4ccccc4C3(C)C)/CCC2)=[N+](CCCCS(=O)(=O)[O-])c2ccccc21.[Na+] [GZ22-4] 90
